# targetUnderTest: Tyrosine-protein kinase JAK1 (Homo sapiens)
# Sequence (P23458 whole entry): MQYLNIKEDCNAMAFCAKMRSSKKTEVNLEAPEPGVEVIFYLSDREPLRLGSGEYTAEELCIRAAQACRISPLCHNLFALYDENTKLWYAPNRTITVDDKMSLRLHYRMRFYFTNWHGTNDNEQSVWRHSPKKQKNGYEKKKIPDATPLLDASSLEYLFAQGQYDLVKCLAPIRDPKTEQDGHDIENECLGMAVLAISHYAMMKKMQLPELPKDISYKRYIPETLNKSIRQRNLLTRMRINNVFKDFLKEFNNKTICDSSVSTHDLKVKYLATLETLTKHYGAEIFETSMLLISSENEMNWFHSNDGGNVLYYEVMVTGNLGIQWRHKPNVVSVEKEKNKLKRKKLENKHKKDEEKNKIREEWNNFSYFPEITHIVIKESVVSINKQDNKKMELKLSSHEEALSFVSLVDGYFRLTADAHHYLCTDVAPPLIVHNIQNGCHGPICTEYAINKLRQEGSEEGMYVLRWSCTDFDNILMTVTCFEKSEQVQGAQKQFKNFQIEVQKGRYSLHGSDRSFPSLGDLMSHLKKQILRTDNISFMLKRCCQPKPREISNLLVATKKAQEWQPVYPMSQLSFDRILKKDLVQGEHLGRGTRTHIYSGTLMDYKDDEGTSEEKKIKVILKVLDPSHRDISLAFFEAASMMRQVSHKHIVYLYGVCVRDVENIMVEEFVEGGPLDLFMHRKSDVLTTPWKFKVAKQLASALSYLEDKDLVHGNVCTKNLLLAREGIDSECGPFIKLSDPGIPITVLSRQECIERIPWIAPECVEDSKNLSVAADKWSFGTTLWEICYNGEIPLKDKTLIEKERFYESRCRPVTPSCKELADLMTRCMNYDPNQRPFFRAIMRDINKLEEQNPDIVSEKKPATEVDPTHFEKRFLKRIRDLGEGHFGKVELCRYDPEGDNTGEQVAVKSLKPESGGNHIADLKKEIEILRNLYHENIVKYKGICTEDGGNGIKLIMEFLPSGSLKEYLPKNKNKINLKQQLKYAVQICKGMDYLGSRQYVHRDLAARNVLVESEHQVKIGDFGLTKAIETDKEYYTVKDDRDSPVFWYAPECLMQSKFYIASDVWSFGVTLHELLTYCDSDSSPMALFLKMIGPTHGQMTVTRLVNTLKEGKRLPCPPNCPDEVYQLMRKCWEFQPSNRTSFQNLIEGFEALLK
assayMetric: pIC50
API: returns pIC50 as number; meaning -log10 of concentration in mol/L.

Field pIC50 (system: Tyrosine-protein kinase JAK1 (Homo sapiens)) for entry CNS(=O)(=O)C[C@H]1CC[C@H](N(C)c2ncnc3[nH]ccc23)CC1 [OCLACITINIB] = 8.00

###

Ratio IC50: recorded values
# Species: Homo sapiens
# protocolNotes: Selectivity ratio of IC50 for JAK1 (unknown origin) to IC50 for JAK2 (unknown origin)
Reply: number alone, nothing else.

Nc1n[nH]c2ccc(NC(=O)c3ccccc3)cc12    3.78

The molecule listed as Nc1n[nH]c2ccc(-c3cnc(-c4ccccc4-n4cnnn4)s3)cc12 has a reported Ratio IC50 of 2.85

The molecule listed as CCNc1ccccc1C(=O)Nc1ccc2[nH]nc(N)c2c1 has a reported Ratio IC50 of 11
